- method_notes: NFkB reporter suppression in cystic fibrosis bronchial cells – cell-based, uHTS hits, panel, cytotoxicity readout, dose response (AID 624344); call rule not given here
- particulars: CF bronchial epithelial cells, PAF-induced NFkB reporter inhibition; with PAF, mean of runs
Valid outcomes are listed here; reply with one: 1 (yes) (active), 0 (no) (inactive)

Previously resolved entries follow.
>  <molecule>
CN(C)C=Nc1c(C(=O)c2ccccc2)sc2nccc(N(C)C)c12

>  <cat>
1 (yes)

$$$$
>  <molecule>
COCCN1Cc2cccc(C(=O)Nc3cccc(-c4nc5ccccc5[nH]4)c3)c2C1=O

>  <cat>
1 (yes)

$$$$
>  <molecule>
Fc1ccc(-n2cc(-c3ccccc3)c3c(N4CCOCC4)ncnc32)cc1

>  <cat>
1 (yes)

$$$$
>  <molecule>
Cc1ccc(CNc2ncnc3ccc(-c4ccoc4C)cc23)o1

>  <cat>
1 (yes)

$$$$
>  <molecule>
O=C1CC(=O)OC(c2ccc([N+](=O)[O-])cc2)O1

>  <cat>
1 (yes)

$$$$
>  <molecule>
Cc1cc(C)nc(Sc2ncnc(N)c2[N+](=O)[O-])n1

>  <cat>
1 (yes)

$$$$
>  <molecule>
CCC1(O)C(=O)OCc2c1cc1n(c2=O)Cc2cc3cc(O)ccc3nc2-1 (stereo not drawn)

>  <cat>
1 (yes)

$$$$
>  <molecule>
CC1(Cc2ccc(Cl)cc2)C(=O)Nc2ccc(-c3cccnc3)cc21 (stereo not drawn)

>  <cat>
1 (yes)

$$$$

Continue with the next molecule.
Query: Look up the recorded call for CCC(C)Oc1cc(-c2ccnc(Nc3cccc(Cl)c3)n2)ccn1 (stereo not drawn) in this test.
Response: 1 (yes)

* * *

- method_notes: NFkB reporter suppression in cystic fibrosis bronchial cells – cell-based, uHTS hits, panel, cytotoxicity readout, dose response (AID 624344)
- particulars: CF bronchial epithelial cells, PAF-induced NFkB reporter inhibition; with PAF, mean of runs
measure_name: IC50

Previously resolved entries follow.
>  <compound>
O=C(N/N=C/c1ccccc1Cl)c1[nH]c2ccc(Br)cc2c1-c1ccccc1

>  <measure_name>
IC50

>  <result>
10.7 µM

$$$$
>  <compound>
CS(=O)(=O)c1ccc2nc(NC(=O)CCS(=O)(=O)c3ccccc3)sc2c1

>  <measure_name>
IC50

>  <result>
4.88 µM

$$$$
>  <compound>
O=S(=O)(CC(CN1CCCC1)N1CCCC1)c1ccc2ccccc2c1 (stereo unspecified)

>  <measure_name>
IC50

>  <result>
1.46 µM

$$$$
>  <compound>
COc1ccc(C[C@H]2NC[C@H](O)[C@H]2OC(C)=O)cc1

>  <measure_name>
IC50

>  <result>
0.155 µM

$$$$
>  <compound>
COc1ccc2cc3c(N)nn(C(=O)Cc4ccccc4OC)c3nc2c1

>  <measure_name>
IC50

>  <result>
2.67 µM

$$$$

Query: IC50; subject: CC(=O)OCCN1c2ccccc2Sc2cnccc21
Response: 4.33 µM

Query: So what's the measured IC50 for this one? Cc1ccnc(NC(=O)CSc2cc(=O)n(C)c3ccccc23)c1
Response: 7.95 µM

Query: Fill blank: measured IC50 of the compound CC(C)(C)OC(=O)NCCCCCNC(=O)c1nc[nH]c1C(=O)NCC(=O)OCc1ccccc1 is ____.
Response: 3.56 µM

Query: What value of IC50 has been recorded for this entry: COc1ccc2[nH]c(=O)c3c(c2c1)OC(C)(C)C=C3
Response: 1.67 µM

Query: Recorded IC50 for NC(=O)c1nsc(C(=O)N(c2ccccc2)C(C(=O)NCc2ccc(F)cc2)c2ccc(O)cc2)c1N (stereo unspecified) , please?
Response: 4.75 µM

Query: Which IC50 is listed for O=C(NCc1ccco1)c1nc2c(nnn2Cc2ccccc2Cl)c(=O)[nH]1 ?
Response: 1.46 µM

Query: // lookup IC50 for COc1cccc(/C=N/n2c(C3CCCCC3)n[nH]c2=S)c1
Response: 3.97 µM

Query: Which IC50 is listed for Cc1ccc(CNc2ncnc3ccc(-c4ccc(CO)o4)cc23)o1 ?
Response: 0.898 µM

* * *

- method_notes: NFkB reporter suppression in cystic fibrosis bronchial cells – cell-based, uHTS hits, panel, cytotoxicity readout, dose response (AID 624344)
- particulars: CF bronchial epithelial cells, PAF-induced NFkB reporter inhibition; with PAF, mean of runs
Activity calls are given as the source filed them. No rule for the calls is given here.
Write down one outcome, taken from TRUE (active), FALSE (inactive)

Examples with answers:
>  <compound>
COc1cccc(C(=O)N2C(C(C)C)COc3cc(Br)ccc3S2(=O)=O)c1 (stereo not given)

>  <cat>
TRUE

$$$$
>  <compound>
O=C(NCc1cccnc1)/C(=C\c1ccc(-c2cccc(Cl)c2)o1)S(=O)(=O)c1ccccc1

>  <cat>
TRUE

$$$$
>  <compound>
NC(c1csc(NC(=O)Nc2cccc(Cl)c2)n1)c1ccccc1Cl (stereo not given)

>  <cat>
TRUE

$$$$
>  <compound>
CC1C(c2ccccc2)OCCN1C(=S)Nc1ccc(S(=O)(=O)N2CCCCC2)cc1 (stereo not given)

>  <cat>
TRUE

$$$$
>  <compound>
CCCCCCc1cc2cc(C(=O)Nc3ccccc3OC)c(=O)oc2cc1O

>  <cat>
FALSE

$$$$
>  <compound>
Cc1nc(N)c(C#N)c(-c2cccnc2)c1-c1ccccc1

>  <cat>
TRUE

$$$$
>  <compound>
COc1ccc(-n2ncc3c(N4CCN(Cc5ccccc5)CC4)ncnc32)cc1

>  <cat>
TRUE

$$$$
>  <compound>
N#Cc1c(Br)n(C2OC(CO)C(O)C2O)c2ncnc(N)c12 (stereo not given)

>  <cat>
TRUE

$$$$
>  <compound>
CC(=O)c1ccc(-c2cnc3c(NC=O)cc(-c4ccc(C(=O)NC5CC5)cc4)cn23)cc1

>  <cat>
TRUE

$$$$
>  <compound>
O=C(OC1CCOC1=O)c1ccccc1C(=O)c1ccc(Cl)c([N+](=O)[O-])c1 (stereo not given)

>  <cat>
TRUE

$$$$

From here, focus on the item given below.
Query: What is the recorded call for this compound in the test? CC1=C(C(=O)OCc2ccc3c(c2)OCO3)C(c2cccc([N+](=O)[O-])c2)NC(=O)N1 (stereo not given)
Response: TRUE

* * *

- method_notes: NFkB reporter suppression in cystic fibrosis bronchial cells – cell-based, uHTS hits, panel, cytotoxicity readout, dose response (AID 624344)
- particulars: CF bronchial epithelial cells, PAF-induced NFkB reporter inhibition; with PAF, mean of runs
measure_name: pIC50
Worth noting: pIC50 values are minus log10 of concentrations stated in mol/L.

Use the examples below as a reference point.
>  <molecule>
O=c1cc(-c2ccccc2Cl)oc2c([N+](=O)[O-])c(O)cc(O)c12

>  <pIC50>
6.63

$$$$
>  <molecule>
COc1ccccc1Cn1c(=O)c2ccccc2n2c(Sc3ncnc4sccc34)nnc12

>  <pIC50>
5.41

$$$$
>  <molecule>
C=C1C(=O)OC2CC1C(O)CC(C)=CCCC(C)=CC(O)CC2C (stereo unspecified)

>  <pIC50>
6.27

$$$$
>  <molecule>
Cc1ncc(CC(=O)n2cc(C(=O)c3cc(Cl)ccc3O)cn2)s1

>  <pIC50>
5.12

$$$$
>  <molecule>
COc1ccc(CNc2nn3c(-c4cccc(C(=O)N(C)C)c4)cnc3s2)cc1

>  <pIC50>
5.61

$$$$

Turning now to a further molecule:
Query: Could you share which pIC50 value was measured for CCS(=O)(=O)c1ncc(Cl)c(C(=O)Nc2ccccc2OC)n1 ?
Response: 5.74

* * *

- method_notes: NFkB reporter suppression in cystic fibrosis bronchial cells – cell-based, uHTS hits, panel, cytotoxicity readout, dose response (AID 624344)
- particulars: CF bronchial epithelial cells, PAF-induced NFkB reporter inhibition; with PAF, mean of runs
Calls of active or inactive are those of the source. How the calls were made is not given here.
# valid calls are active, inactive; nothing else

Here are 3 compounds together with their reported answers.
>  <compound>
CC(=O)c1ccc(-n2c(C)c(C(C)=O)c3cc(O)ccc32)cc1

>  <cat>
active

$$$$
>  <compound>
CCOC(=O)c1c(-c2ccccc2)oc2cc(Br)c(O)c(C=O)c12

>  <cat>
active

$$$$
>  <compound>
COc1ccc2c(c1OC)C(=O)N1c3ccccc3C(=O)N(c3ccccc3)C21 (stereo unspecified)

>  <cat>
active

$$$$

Query: Could you kindly confirm the outcome this assay logged for C=C1C(=O)O[C@@H]2[C@H]3O[C@]3(C)CC/C=C(\C)CC[C@@H]12 ?
Response: active

Query: What classification did CCOC(=O)c1[nH]c(C)c(C(=O)N2CCc3ccccc32)c1C end up with in this test?
Response: inactive

* * *

- method_notes: NFkB reporter suppression in cystic fibrosis bronchial cells – cell-based, uHTS hits, panel, cytotoxicity readout, dose response (AID 624344)
- particulars: CF bronchial epithelial cells, PAF-induced NFkB reporter inhibition; with PAF, mean of runs
Activity calls are given as the source filed them. The rule behind the calls is not given here.
measure_name: IC50

Look over these answered cases.
>  <structure_smiles>
O=c1c(O)c(-c2ccccc2)oc2cc(O)cc(O)c12

>  <IC50>
3.27 µM

$$$$
>  <structure_smiles>
CCOC(=O)c1c(-c2ccc(C)cc2)csc1NC(=O)c1ccc(N2C(=O)CCC2=O)cc1

>  <IC50>
inactive

$$$$
>  <structure_smiles>
CN(C)c1ccnc2sc3c(=O)n(Cc4ccccc4)cnc3c12

>  <IC50>
1.27 µM

$$$$
>  <structure_smiles>
O=C(Nc1ccccc1)c1cc2ccccc2c(=O)s1

>  <IC50>
5.4 µM

$$$$

Query: Give its IC50 value. Item: CCc1nc(Cl)c(C#N)c2c1CCCC2
Response: 2.87 µM

Query: Requested field: IC50. Item: O=C(COC(=O)c1ccc2[nH]c3c(c2c1)CCCC3)Nc1ccccc1Cl
Response: inactive

Query: Would you kindly share the measured IC50 for COc1ccc(-c2cnc3c(NC=O)cc(-c4ccccc4OC)cn23)cc1OC ?
Response: 6.5 µM

Values compiled from PubChem BioAssay AID624344.
